Ref: PubChem BioAssay (NCI)

TGI: recorded values
Test system: OVCAR-3 ovarian
METHOD_DESCRIPTION: NCI tumour cell line growth inhibition, 48 h
RECORDED_METRIC: TGI (µM)

{"MOLECULE": "O=C1c2ccccc2C(=O)c2c1ccc1c(=O)n(-c3ccccc3C(F)(F)F)nnc21", "SYSTEM_NAME": "OVCAR-3 ovarian", "CMP": "=", "VAL": 1.42}
{"MOLECULE": "Cc1ccc(-c2nc(N3CCNCC3)c3oc(-c4ccccc4)nc3n2)cc1", "SYSTEM_NAME": "OVCAR-3 ovarian", "CMP": "=", "VAL": 3.48}
{"MOLECULE": "COc1c(O)cc2c(c1O)C(=O)C1=C(CCCC1)C2=O", "SYSTEM_NAME": "OVCAR-3 ovarian", "CMP": ">", "VAL": 100}
{"MOLECULE": "CCCCCCNC(=S)N/N=C(\\C)c1ccccn1", "SYSTEM_NAME": "OVCAR-3 ovarian", "CMP": "=", "VAL": 21.8}
{"MOLECULE": "CCOc1ccc2c(c1)CN(Cc1ccc(Cl)cc1)CO2", "SYSTEM_NAME": "OVCAR-3 ovarian", "CMP": "=", "VAL": 51.1}
{"MOLECULE": "N#Cc1ccccc1C#C/C=C\\C#Cc1ccccc1N", "SYSTEM_NAME": "OVCAR-3 ovarian", "CMP": "=", "VAL": 2.64}
{"MOLECULE": "CC(C)CC1c2[nH]c3ccccc3c2C[C@H]2C(=O)NC(CCCCNC(=O)OC(C)(C)C)C(=O)N12 (stereo not given in full)", "SYSTEM_NAME": "OVCAR-3 ovarian", "CMP": "=", "VAL": 16.6}
{"MOLECULE": "COc1cc(/C=C/c2ccc(Br)cc2)cc(OC)c1OC", "SYSTEM_NAME": "OVCAR-3 ovarian", "CMP": "=", "VAL": 26.4}
{"MOLECULE": "CN1CCN(c2ccc(NC(=O)c3cncnc3Nc3ccc(OCc4cccc(F)c4)c(Cl)c3)cc2)CC1", "SYSTEM_NAME": "OVCAR-3 ovarian", "CMP": ">", "VAL": 50}
{"MOLECULE": "COC(=O)c1cc(NC(=O)c2cc(NC(=O)Cc3c[nH]c4ccccc34)cn2C)cn1C", "SYSTEM_NAME": "OVCAR-3 ovarian", "CMP": ">", "VAL": 100}

====

System: OVCAR-3 ovarian
METHOD_DESCRIPTION: NCI tumour cell line growth inhibition, 48 h; in the data active means GI50 below about 0.43 µM; inactive means the rest
Outcomes: active, inactive

{"MOLECULE": "Clc1ccc(Nc2nc(Nc3ccccc3)nc(Nc3ccc(-c4cc(-c5ccc(Cl)cc5)on4)cc3)n2)cc1", "DISCRETE_LABEL": "inactive"}
{"MOLECULE": "CC(C)(C)NC(=O)[C@H]1CC[C@H]2[C@@H]3CC[C@H]4NC(=O)C=C[C@]4(C)[C@H]3CC[C@]12C", "DISCRETE_LABEL": "inactive"}
{"MOLECULE": "Cc1nc(-c2cnc(NC(C)C)n(C)c2=O)ccc1Oc1ccnc(-c2cnn(C)c2)c1", "DISCRETE_LABEL": "inactive"}
{"MOLECULE": "COc1cc(/C=C/C(=O)/C=C/c2cc3ccc(Cl)cc3n(Cc3ccccc3)c2=O)ccc1O", "DISCRETE_LABEL": "inactive"}
{"MOLECULE": "Nc1nnnc2nc[nH]c12", "DISCRETE_LABEL": "inactive"}
{"MOLECULE": "COc1cc(/C=C/C(=O)N2CCC=CC2=O)cc(OC)c1OC", "DISCRETE_LABEL": "inactive"}
{"MOLECULE": "COc1ccc2nc3cc([N+](=O)[O-])ccc3c(NNc3ccccc3)c2c1", "DISCRETE_LABEL": "inactive"}
{"MOLECULE": "CCOc1ccc2c(c1)CN(Cc1ccc(Cl)cc1)CO2", "DISCRETE_LABEL": "inactive"}
{"MOLECULE": "O=C(Nc1ccc(-n2ccc3c(NC(=O)c4ccccc4)nccc32)cc1)Nc1cccc(C(F)(F)F)c1", "DISCRETE_LABEL": "inactive"}
{"MOLECULE": "CC[C@]1(O)CC2CN(CCc3c([nH]c4ccccc34)[C@@](C(=O)OC)(c3cc4c(cc3OC)N(C=O)[C@H]3[C@@](O)(C(=O)OC)[C@H](OC(C)=O)[C@]5(CC)C=CCN6CC[C@]43[C@@H]65)C2)C1 (stereo not given in full)", "DISCRETE_LABEL": "active"}
